The measured values listed here are drawn from ChEMBL document CHEMBL5038674.

Test system: Mycobacterium avium
Procedure text: Antimycobacterial activity against Mycobacterium avium 11 assessed as inhibition of mycobacterial growth incubated for 3 days by broth microdilution method
Format: functional
Assay setup: Mycobacterium avium, 11, 72 h; time 3 day
For each entry below, report its MIC90 value.
Provide the reading as a plain figure in µM.

### Prompt Requested read-out: MIC90. Entry: `COc1ccc2nccc(NC(=O)[C@H]3CC[C@H](NCc4ccc(C(F)(F)F)cc4)CC3)c2n1`
### Response 2

### Prompt Data request, read-out MIC90, for `COc1ccc2nccc(NC(=O)C3CCN(CCc4ccc(C(F)(F)F)c(F)c4)CC3)c2n1`
### Response 0.8

### Prompt I am curious: what MIC90 value has been reported for `COc1ccc2nccc(NC(=O)C3(C)CCN(CCc4ccc(C(F)(F)F)cc4)CC3)c2n1` ?
### Response 6

### Prompt Please look up its MIC90: `COc1ccc2nccc(NC(=O)C3CCN(CCc4ccc(C(F)(F)F)cc4)CC3)c2n1`
### Response 2.5

### Prompt GET /values?readout=MIC90&item= `COc1c(N2C[C@@H]3CCCN[C@@H]3C2)c(F)cc2c(=O)c(C(=O)O)cn(C3CC3)c12`
### Response 0.6

###

Tested on: NIH3T3
Procedure text: Cytotoxicity against mouse NIH3T3 cells assessed as reduction in cell viability upto 30 uM after 24 hrs by SRB assay
Type: toxicity, cell-based
Assay setup: nih3t3, 24 h
Measure: Activity

These recorded examples may help you get a feel for the data.
### Prompt # get_value(readout= Activity, system= NIH3T3) for `COc1ccc2cccc(NC(=O)C3CCN(CCc4ccc(C(F)(F)F)cc4)CC3)c2n1`
### Response Non-Toxic

### Prompt Provide value of Activity for this record tested with NIH3T3: `COc1ccc2nccc(NC(=O)C3CCN(CCc4cccc(C(F)(F)F)c4)CC3)c2n1`
### Response Non-Toxic

### Prompt Request body: readout Activity, system NIH3T3, query `COc1ccc2nccc(NC(=O)C3CCN(CCc4ccc(C(F)(F)F)c(F)c4)CC3)c2n1` . Return the value.
### Response Non-Toxic

### Prompt Value wanted: Activity (NIH3T3) of entry `COc1ccc2nccc(NC(=O)C3CCN(CCc4ccc(C(F)(F)F)cc4)CC3)c2n1`
### Response Non-Toxic

### Prompt Lab note: need Activity for `COc1ccc2nccc(NC(=O)C3(C)CCN(CCc4ccc(C(F)(F)F)cc4)CC3)c2n1` on NIH3T3, anyone have it?
### Response Non-Toxic

Further cases:
### Prompt Query the reported Activity for NIH3T3; item: `COc1ccc2nccc(NC(=O)[C@H]3CC[C@H](NCc4ccc(C(F)(F)F)cc4)CC3)c2n1`
### Response Non-Toxic

###

Experimental system: hERG (KCNH2) (Homo sapiens, UniProt Q12809)
Sequence (Q12809 whole entry): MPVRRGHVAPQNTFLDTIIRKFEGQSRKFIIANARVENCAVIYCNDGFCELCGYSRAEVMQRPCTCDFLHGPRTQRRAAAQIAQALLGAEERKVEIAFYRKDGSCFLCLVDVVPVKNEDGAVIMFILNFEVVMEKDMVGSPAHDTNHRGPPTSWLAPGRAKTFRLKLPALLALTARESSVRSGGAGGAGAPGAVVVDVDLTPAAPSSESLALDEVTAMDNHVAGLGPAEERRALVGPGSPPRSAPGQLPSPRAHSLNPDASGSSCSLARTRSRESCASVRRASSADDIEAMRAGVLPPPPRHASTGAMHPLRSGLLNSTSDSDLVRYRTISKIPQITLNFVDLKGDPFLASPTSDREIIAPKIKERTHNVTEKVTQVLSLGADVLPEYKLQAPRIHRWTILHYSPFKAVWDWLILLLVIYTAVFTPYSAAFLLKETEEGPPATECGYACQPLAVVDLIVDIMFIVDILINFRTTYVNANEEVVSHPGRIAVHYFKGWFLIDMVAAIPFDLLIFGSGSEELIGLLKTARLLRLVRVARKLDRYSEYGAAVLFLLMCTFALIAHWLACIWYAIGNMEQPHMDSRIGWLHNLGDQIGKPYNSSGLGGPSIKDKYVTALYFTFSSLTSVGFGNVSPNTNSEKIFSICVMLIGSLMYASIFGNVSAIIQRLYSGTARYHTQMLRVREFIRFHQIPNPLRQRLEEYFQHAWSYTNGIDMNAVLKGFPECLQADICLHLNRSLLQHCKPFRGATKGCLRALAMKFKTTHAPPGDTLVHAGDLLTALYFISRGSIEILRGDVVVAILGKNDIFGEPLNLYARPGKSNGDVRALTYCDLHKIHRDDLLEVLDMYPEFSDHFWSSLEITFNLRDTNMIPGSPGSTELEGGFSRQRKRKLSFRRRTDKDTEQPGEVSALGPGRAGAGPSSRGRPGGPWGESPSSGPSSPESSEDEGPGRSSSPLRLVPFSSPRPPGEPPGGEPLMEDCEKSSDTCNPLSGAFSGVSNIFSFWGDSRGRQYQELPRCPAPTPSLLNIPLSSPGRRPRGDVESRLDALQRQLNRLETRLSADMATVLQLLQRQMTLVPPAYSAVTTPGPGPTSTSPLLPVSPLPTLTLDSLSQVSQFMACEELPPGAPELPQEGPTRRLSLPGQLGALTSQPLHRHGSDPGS
Procedure text: Inhibition of human ERG at 10 uM
Format: toxicity
Measure: inhibition at 10 µM (%)
Enter your answer as a number in %; do not include the unit.

### Prompt I have this compound here, `COc1ccc2nccc(NC(=O)C3CCN(CCc4ccc(C(F)(F)F)cc4)CC3)c2n1` , and I need its recorded inhibition at 10 µM.
### Response 93
